The origin of these recorded values is paper PMC9211397.

molecular target: P. falciparum translation (P. falciparum lysate); test: P. falciparum in vitro translation (PfIVT) assay, lysate-based, luciferase reporter; assay type: biochemical, Plasmodium falciparum; conditions: established inhibitors of protein translation; read-out: IC50 values, µM PfIVT (Table S1)
measure_name: log10 IC50 (log10 of the value in µM)

* C[C@@H]1C[C@H](C)C[C@H](C)[C@@H](O)CC(=O)O[C@H]([C@@H]2CCC[C@H]2C(=O)O)C/C=C/C=C(/C#N)[C@H](O)[C@@H](C)C1 [Borrelidin, borrelidin, reference compound] | 0.08
* C[C@@H]1C[C@@H]([C@H](O)CC2CC(=O)NC(=O)C2)C(=O)[C@@H](C)C1 [Cycloheximide, cycloheximide, reference compound] | -0.30
* O=C(CC1NCCCC1O)Cn1cnc2cc(Br)c(Cl)cc2c1=O (centres unmarked) [Halofuginone, halofuginone, reference compound] | -0.52
* O=C(NCCN1CCCC1)c1cc(-c2ccc(CN3CCOCC3)cc2Cl)nc2ccc(F)cc12 [DDD00197451, reference compound] | -0.30
* C[C@H]1CCC[C@H](C[C@H]2Cc3cc(O)cc(O)c3C(=O)O2)O1 [Cladosporin, cladosporin, reference compound] | 1.11
* CC[C@H]1CN2CCc3cc(OC)c(OC)cc3[C@@H]2C[C@@H]1C[C@H]1NCCc2cc(OC)c(OC)cc21 [Emetine, emetine, reference compound] | 0.26
* NCCCC[C@H](N)C(=O)NS(=O)(=O)OC[C@H]1O[C@@H](n2cnc3c(N)ncnc32)[C@H](O)[C@@H]1O [DDD01712277, reference compound] | -0.70
* O=C(NCCN1CCCC1)c1cc(-c2ccc(CN3CCOCC3)cc2)nc2ccc(F)cc12 [DDD107498/M5717, reference compound] | -1.00

---

biological target: P. falciparum translation (P. falciparum lysate); assay: P. falciparum in vitro translation (PfIVT) assay, lysate-based, luciferase reporter; assay type: biochemical, Plasmodium falciparum; details: Pathogen Box hits; 8-point; weighted mean ± SD of two technical replicates; read-out: IC50 value (μM) PfIVT
measure_name: IC50

- CCCCOC(=O)Nc1cc2[nH]c(C3CCCCC3)nc2cc1N1CCCC1: 3.9 µM
- O=C(NCCN1CCCC1)c1cc(NCCN2CCOCC2)nc2ccc(Cl)cc12: 2.9 µM
- O=C(Nc1ccc(C(F)(F)F)c(C(F)(F)F)c1)c1cc(Cl)ccc1O: 0.09 µM
- N=C(N)Nc1ccc(-c2ccc(-c3ccc(N=C(N)N)c(Cl)c3)o2)cc1Cl: 18 µM
- Cc1ccc(C(=O)Nc2ccc(S(=O)(=O)O)c3cc(S(=O)(=O)O)cc(S(=O)(=O)O)c23)cc1NC(=O)c1cccc(NC(=O)Nc2cccc(C(=O)Nc3cc(C(=O)Nc4ccc(S(=O)(=O)O)c5cc(S(=O)(=O)O)cc(S(=O)(=O)O)c45)ccc3C)c2)c1: 3.1 µM
- COc1cc(C2=NCCN2)ccc1-c1cn(-c2cccc(C3=NCCN3)c2)nn1: 6 µM
- NC(=O)c1cc(Br)ccc1OCCOc1ccccc1: 2.2 µM
- COc1ccc(C(=N)N)cc1-c1cn(-c2ccc(C(=N)N)cc2)nn1: 13 µM

---

Here, each record is paired with measured IC50 data.
molecular target: CBG99 luciferase (Pyrophorus plagiophthalamus); assay: Luciferase counterscreen (false-positive counterscreen); assay type: biochemical, click beetle; details: read-out: IC50 value (μM) Counterscreen; Pandemic Box hits; weighted mean ± SD of two technical replicates
Sequence (Q7M4K1 entry or part of it): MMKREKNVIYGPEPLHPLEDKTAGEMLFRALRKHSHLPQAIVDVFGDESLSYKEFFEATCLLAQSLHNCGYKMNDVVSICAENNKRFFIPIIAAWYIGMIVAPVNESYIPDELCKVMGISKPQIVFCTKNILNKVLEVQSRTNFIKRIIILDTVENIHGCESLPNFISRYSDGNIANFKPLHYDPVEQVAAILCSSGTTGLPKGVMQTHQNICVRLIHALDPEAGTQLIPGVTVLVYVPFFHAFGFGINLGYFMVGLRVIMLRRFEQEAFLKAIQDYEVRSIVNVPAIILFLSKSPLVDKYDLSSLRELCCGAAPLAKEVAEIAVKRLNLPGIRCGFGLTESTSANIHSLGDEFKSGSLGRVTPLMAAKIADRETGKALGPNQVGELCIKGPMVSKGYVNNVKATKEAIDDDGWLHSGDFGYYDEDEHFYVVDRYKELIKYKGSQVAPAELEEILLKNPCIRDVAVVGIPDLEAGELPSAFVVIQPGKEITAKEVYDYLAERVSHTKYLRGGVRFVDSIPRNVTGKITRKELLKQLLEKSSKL
measure_name: IC50 (µM)

* Nc1nc(NC2Cc3ccc(F)cc3C2)nc(N2CCCCC2)n1 (centres unmarked) | 8.3
* CC(=O)Oc1ccccc1C(=O)Nc1ncc([N+](=O)[O-])s1 [MMV688991, nitazoxanide, reference compound] | 0.04
